# ASSAY SYSTEM: Human plasmin (Homo sapiens)
# Construct: Human plasmin (CHROMOGENIX, Milano, Italy); purchased CHROMOGENIX, Milano, Italy
# PROTOCOL TEXT: Enzyme kinetic determination of Ki with chromogenic substrate, plasmin
# Assay type: biochemical
# EXPERIMENTAL CONTEXT: Tris buffer pH 8.0, 25° C., Chromozym PL
Param label: returns criterion met when Ki < 200000 nM, returns criterion not met otherwise, including exact equality.

[
  {
    "COMPOUND": "NCc1ccc(Cl)cc1CNC(=O)[C@H](CCC(=O)O)NC(=O)C(CCc1cccc[n+]1[O-])NS(=O)(=O)Cc1ccccc1 (stereo partly shown)",
    "CLASS": "criterion not met"
  },
  {
    "COMPOUND": "NCc1ccc(Cl)cc1CNC(=O)CNC(=O)C(CCc1ccccn1)NS(=O)(=O)Cc1cccnc1 (stereo not shown)",
    "CLASS": "criterion not met"
  },
  {
    "COMPOUND": "NCc1ccc(Cl)cc1CNC(=O)[C@H](CO)NC(=O)C(CCc1ccccn1)NS(=O)(=O)Cc1ccccc1 (stereo partly shown)",
    "CLASS": "criterion not met"
  },
  {
    "COMPOUND": "NCc1ccc(Cl)cc1CNC(=O)CNC(=O)C(CCc1cccc[n+]1[O-])NS(=O)(=O)CC(=O)O (stereo not shown)",
    "CLASS": "criterion not met"
  },
  {
    "COMPOUND": "COC(=O)c1ccc(CS(=O)(=O)NC(CCc2ccccn2)C(=O)NCC(=O)NCc2cc(Cl)ccc2CN)cc1 (stereo not shown)",
    "CLASS": "criterion met"
  },
  {
    "COMPOUND": "NCc1ccc(Cl)cc1CNC(=O)CNC(=O)C(CCc1cccc[n+]1[O-])NS(=O)(=O)Cc1ccc(CC(=O)O)cc1 (stereo not shown)",
    "CLASS": "criterion not met"
  }
]

###

# ASSAY SYSTEM: Human plasmin (Homo sapiens, UniProt P00747)
# Construct: Human plasmin (CHROMOGENIX, Milano, Italy); purchased CHROMOGENIX, Milano, Italy
# Sequence (P00747 581-810 limits assumed): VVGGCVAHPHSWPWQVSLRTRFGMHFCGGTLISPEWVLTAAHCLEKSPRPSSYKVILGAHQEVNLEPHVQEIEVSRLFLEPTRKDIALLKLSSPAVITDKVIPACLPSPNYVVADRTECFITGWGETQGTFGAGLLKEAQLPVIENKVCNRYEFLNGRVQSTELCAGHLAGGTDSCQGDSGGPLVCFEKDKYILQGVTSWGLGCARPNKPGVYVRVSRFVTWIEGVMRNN
# Sequence (P00747 97-580 limits assumed): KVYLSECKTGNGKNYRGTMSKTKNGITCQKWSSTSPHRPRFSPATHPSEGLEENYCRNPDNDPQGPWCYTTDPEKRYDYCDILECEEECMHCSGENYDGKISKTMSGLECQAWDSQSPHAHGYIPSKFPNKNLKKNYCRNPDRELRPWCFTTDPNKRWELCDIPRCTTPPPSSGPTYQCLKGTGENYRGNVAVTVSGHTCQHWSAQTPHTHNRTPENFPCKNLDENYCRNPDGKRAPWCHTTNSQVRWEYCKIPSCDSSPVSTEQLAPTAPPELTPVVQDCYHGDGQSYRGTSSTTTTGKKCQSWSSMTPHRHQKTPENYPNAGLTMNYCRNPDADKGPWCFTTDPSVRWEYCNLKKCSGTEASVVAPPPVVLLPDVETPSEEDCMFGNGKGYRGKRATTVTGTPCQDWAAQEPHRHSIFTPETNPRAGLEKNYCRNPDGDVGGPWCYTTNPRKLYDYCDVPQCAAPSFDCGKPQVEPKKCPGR
# PROTOCOL TEXT: Enzyme kinetic determination of Ki with chromogenic substrate, plasmin
# Format: biochemical
# EXPERIMENTAL CONTEXT: Tris buffer pH 8.0, 25° C., Chromozym PL
PROPERTY LABEL: Ki (nM)

[
  {
    "COMPOUND": "COC(=O)c1ccc(CS(=O)(=O)NC(CCc2cccc[n+]2[O-])C(=O)N[C@@H](CO)C(=O)NCc2cc(Cl)ccc2CN)cc1 (stereo partly drawn)",
    "OBSERVED": 160000
  },
  {
    "COMPOUND": "COC(=O)CC[C@H](NC(=O)[C@@H](CCc1cccc[n+]1[O-])NS(=O)(=O)Cc1ccccc1)C(=O)NCc1cc(Cl)ccc1CN",
    "OBSERVED": 78000
  },
  {
    "COMPOUND": "NCc1ccc(Cl)cc1CNC(=O)CNC(=O)C(CCc1cccc[n+]1[O-])NS(=O)(=O)Cc1ccc(C(=O)O)cc1 (stereo not drawn)",
    "OBSERVED": 130000
  }
]

###

# ASSAY SYSTEM: Human factor Xa (Homo sapiens)
# Construct: Human factor Xa (Enzyme Research Lab., purchased from Haemochrom Diagnostica GmbH, Essen); purchased Enzyme Research Lab; (via Haemochrom Diagnostica GmbH, Essen)
# PROTOCOL TEXT: Enzyme kinetic determination of Ki with chromogenic substrate, factor Xa
# Format: biochemical
# EXPERIMENTAL CONTEXT: Tris buffer pH 8.0, 25° C., Pefachrome Xa, read-out: Ki (nM) FXa
# Lookup of reported Ki keyed by entry
PROPERTY LABEL: Ki

[
  {
    "MOLECULE": "NCc1ccc(Cl)cc1CNC(=O)CNC(=O)C(CCc1cccc[n+]1[O-])NS(=O)(=O)Cc1ccc[n+]([O-])c1 (stereo not shown)",
    "ASSAY SYSTEM": "Human factor Xa (Homo sapiens)",
    "PROPERTY LABEL": "Ki",
    "OBSERVED": "1.4 nM"
  },
  {
    "MOLECULE": "NCc1ccc(Cl)cc1CNC(=O)CNC(=O)C(CCc1cccc[n+]1[O-])NS(=O)(=O)Cc1ccc(C(=O)O)cc1 (stereo not shown)",
    "ASSAY SYSTEM": "Human factor Xa (Homo sapiens)",
    "PROPERTY LABEL": "Ki",
    "OBSERVED": "4.1 nM"
  },
  {
    "MOLECULE": "COC(=O)c1ccc(CS(=O)(=O)NC(CCc2ccccn2)C(=O)NCC(=O)NCc2cc(Cl)ccc2CN)cc1 (stereo not shown)",
    "ASSAY SYSTEM": "Human factor Xa (Homo sapiens)",
    "PROPERTY LABEL": "Ki",
    "OBSERVED": "1.05 nM"
  },
  {
    "MOLECULE": "NCc1ccc(Cl)cc1CNC(=O)[C@@H]1CCCN1C(=O)[C@@H](CCc1cccc[n+]1[O-])NCC(=O)OC1CCCCC1",
    "ASSAY SYSTEM": "Human factor Xa (Homo sapiens)",
    "PROPERTY LABEL": "Ki",
    "OBSERVED": "1.01 nM"
  },
  {
    "MOLECULE": "COC(=O)CC[C@H](NC(=O)C(CCc1cccc[n+]1[O-])NS(=O)(=O)Cc1ccccc1)C(=O)NCc1cc(Cl)ccc1CN (stereo partly shown)",
    "ASSAY SYSTEM": "Human factor Xa (Homo sapiens)",
    "PROPERTY LABEL": "Ki",
    "OBSERVED": "0.43 nM"
  },
  {
    "MOLECULE": "CC(C)OC(=O)CS(=O)(=O)NC(CCc1cccc[n+]1[O-])C(=O)NCC(=O)NCc1cc(Cl)ccc1CN (stereo not shown)",
    "ASSAY SYSTEM": "Human factor Xa (Homo sapiens)",
    "PROPERTY LABEL": "Ki",
    "OBSERVED": "7.6 nM"
  },
  {
    "MOLECULE": "COC(=O)Cc1ccc(CS(=O)(=O)NC(CCc2ccccn2)C(=O)N[C@@H](CO)C(=O)NCc2cc(Cl)ccc2CN)cc1 (stereo partly shown)",
    "ASSAY SYSTEM": "Human factor Xa (Homo sapiens)",
    "PROPERTY LABEL": "Ki",
    "OBSERVED": "0.67 nM"
  },
  {
    "MOLECULE": "NCc1ccc(Cl)cc1CNC(=O)CNC(=O)C(CCc1ccccn1)NS(=O)(=O)Cc1ccc(CC(=O)O)cc1 (stereo not shown)",
    "ASSAY SYSTEM": "Human factor Xa (Homo sapiens)",
    "PROPERTY LABEL": "Ki",
    "OBSERVED": "0.68 nM"
  },
  {
    "MOLECULE": "CC(C)OC(=O)CS(=O)(=O)NC(CCc1ccccn1)C(=O)NCC(=O)NCc1cc(Cl)ccc1CN (stereo not shown)",
    "ASSAY SYSTEM": "Human factor Xa (Homo sapiens)",
    "PROPERTY LABEL": "Ki",
    "OBSERVED": "2.1 nM"
  },
  {
    "MOLECULE": "COC(=O)c1ccc(CS(=O)(=O)NC(CCc2cccc[n+]2[O-])C(=O)N[C@@H](CO)C(=O)NCc2cc(Cl)ccc2CN)cc1 (stereo partly shown)",
    "ASSAY SYSTEM": "Human factor Xa (Homo sapiens)",
    "PROPERTY LABEL": "Ki",
    "OBSERVED": "0.48 nM"
  },
  {
    "MOLECULE": "COC(=O)CC[C@H](NC(=O)[C@@H](CCc1cccc[n+]1[O-])NS(=O)(=O)Cc1ccccc1)C(=O)NCc1cc(Cl)ccc1CN",
    "ASSAY SYSTEM": "Human factor Xa (Homo sapiens)",
    "PROPERTY LABEL": "Ki",
    "OBSERVED": "0.24 nM"
  },
  {
    "MOLECULE": "NCc1ccc(Cl)cc1CNC(=O)[C@H](CN)NC(=O)[C@@H](CCc1cccc[n+]1[O-])NS(=O)(=O)Cc1ccccc1",
    "ASSAY SYSTEM": "Human factor Xa (Homo sapiens)",
    "PROPERTY LABEL": "Ki",
    "OBSERVED": "0.54 nM"
  },
  {
    "MOLECULE": "NCc1ccc(Cl)cc1CNC(=O)CNC(=O)C(CCc1ccccn1)NS(=O)(=O)Cc1ccc(C(=O)O)cc1 (stereo not shown)",
    "ASSAY SYSTEM": "Human factor Xa (Homo sapiens)",
    "PROPERTY LABEL": "Ki",
    "OBSERVED": "11 nM"
  }
]

###

# Lookup of reported Ki keyed by entry
# ASSAY SYSTEM: Human factor Xa (Homo sapiens, UniProt P00742)
# Construct: Human factor Xa (Enzyme Research Lab., purchased from Haemochrom Diagnostica GmbH, Essen); purchased Enzyme Research Lab; (via Haemochrom Diagnostica GmbH, Essen)
# Sequence (P00742 235-488 limits assumed): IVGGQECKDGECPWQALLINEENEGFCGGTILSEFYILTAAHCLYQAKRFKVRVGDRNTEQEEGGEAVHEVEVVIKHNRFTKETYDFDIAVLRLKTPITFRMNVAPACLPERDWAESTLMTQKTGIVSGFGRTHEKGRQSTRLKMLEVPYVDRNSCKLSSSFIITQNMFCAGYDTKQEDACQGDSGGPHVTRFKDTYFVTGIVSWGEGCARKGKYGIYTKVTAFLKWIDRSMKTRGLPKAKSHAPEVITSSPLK
# Sequence (P00742 41-179 limits assumed): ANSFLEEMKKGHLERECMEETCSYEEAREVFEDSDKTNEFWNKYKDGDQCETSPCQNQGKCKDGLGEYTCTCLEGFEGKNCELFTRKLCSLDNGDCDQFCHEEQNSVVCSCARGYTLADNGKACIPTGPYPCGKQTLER
# PROTOCOL TEXT: Enzyme kinetic determination of Ki with chromogenic substrate, factor Xa
# Format: biochemical
# EXPERIMENTAL CONTEXT: Tris buffer pH 8.0, 25° C., Pefachrome Xa, read-out: Ki (nM) FXa

[
  {
    "MOLECULE": "NCc1ccc(Cl)cc1CNC(=O)CNC(=O)[C@H](O)CCc1ccccc1",
    "Ki [nM]": 2200
  },
  {
    "MOLECULE": "NCc1ccc(Cl)cc1CNC(=O)[C@@H]1CCCN1C(=O)[C@@H](CCc1cccc[n+]1[O-])NCC(=O)O",
    "Ki [nM]": 0.4
  },
  {
    "MOLECULE": "NCc1ccc(Cl)cc1CNC(=O)[C@H](CO)NC(=O)[C@@H](CCc1ccccn1)NS(=O)(=O)Cc1ccc(CC(=O)O)cc1",
    "Ki [nM]": 0.78
  },
  {
    "MOLECULE": "NCc1ccc(Cl)cc1CNC(=O)[C@@H]1CCCN1C(=O)C(CCc1cccc[n+]1[O-])NC(=O)C(=O)O (stereo partly shown)",
    "Ki [nM]": 0.88
  }
]
